Provide the recorded Kd for the entries that follow.
Target: T1, human PTK7-Fc protein antigen (human, UniProt Q13308 31-704)
T1 construct: extracellular domain; also called human PTK7 extracellular segment protein; not shown: Fc from the pFUSE-IgG recombinant plasmid
T1 sequence (looked up): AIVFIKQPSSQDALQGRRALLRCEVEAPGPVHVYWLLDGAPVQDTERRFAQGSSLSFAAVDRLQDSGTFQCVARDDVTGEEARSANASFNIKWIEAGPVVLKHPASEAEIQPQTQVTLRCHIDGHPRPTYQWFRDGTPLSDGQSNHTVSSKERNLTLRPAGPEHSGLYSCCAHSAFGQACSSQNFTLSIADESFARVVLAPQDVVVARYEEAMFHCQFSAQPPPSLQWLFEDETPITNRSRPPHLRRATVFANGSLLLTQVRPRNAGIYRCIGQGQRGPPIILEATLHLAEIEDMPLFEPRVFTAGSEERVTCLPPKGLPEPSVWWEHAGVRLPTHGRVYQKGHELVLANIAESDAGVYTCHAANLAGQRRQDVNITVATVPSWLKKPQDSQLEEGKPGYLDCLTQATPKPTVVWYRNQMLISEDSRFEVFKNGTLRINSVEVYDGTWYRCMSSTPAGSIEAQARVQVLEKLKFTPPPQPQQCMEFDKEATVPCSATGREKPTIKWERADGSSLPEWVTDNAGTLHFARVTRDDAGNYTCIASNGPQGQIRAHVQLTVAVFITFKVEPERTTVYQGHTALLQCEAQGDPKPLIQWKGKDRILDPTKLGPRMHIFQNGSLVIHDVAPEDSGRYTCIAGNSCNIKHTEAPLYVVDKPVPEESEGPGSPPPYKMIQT
Assay: SPR (Biacore 8K), human PTK7-Fc amine-coupled on CM-5 chip, VHH as analyte
Write down the numeric answer in nM and omit the unit.

Enquiry: Specify measured Kd for MY2132-4-22 (VHH, Camel VHH expressed in E. coli WK6 and purified on a nickel column; also called MY2132-4-22 VHH; anti-PTK7 single domain antibody) VHH: QVQLQESGGGSVQAGGSLRLSCTASGFTFDDYDMVWYRQAPGNEYEWLSTVSRGGNLYYADSVKGRFTISRDNAKNTVYLNMSRVKPEDTAVYYCAADLRSVPSTYRARTCRGRYCRDYWGQGTQVTVSS .
Return: 2.13

Enquiry: Given the binder MY2132-4-79 (VHH, Camel VHH expressed in E. coli WK6 and purified on a nickel column; also called MY2132-4-79 VHH; anti-PTK7 single domain antibody) VHH: QVQLQESGGGSVQAGGSLRLSCAASGYIWSRYCMGWFRQAPGKAREGVARFNSDGNTRYVDSVKGRFTISRDNAKNTLYLQMNNLQPEDTARYYCAADPRFDCGYDAVFNPTHFPYWGQGTQVTVSS , write its reported Kd.
Return: 0.22

Enquiry: Please report the measured Kd for MY2132-5-51 (VHH, Camel VHH expressed in E. coli WK6 and purified on a nickel column; also called MY2132-5-51 VHH; anti-PTK7 single domain antibody) VHH: QVQLQESGGGLVQPGGSLTLACAASGFAFSSYAMRWVRQAPGKGLEGVSSISAGGDETYYADFAKGRFTISRDNAKNTLYLQLNSLKTEDTAMYYCAKGDRNSPRYSSWPITPVGQGTQVTVSS
Return: 3.45

Enquiry: Give reported Kd value for MY2132-4-55 (VHH, Camel VHH expressed in E. coli WK6 and purified on a nickel column; also called MY2132-4-55 VHH; anti-PTK7 single domain antibody) VHH: QVQLQESGGGSVQAGGSLRLSCAASGYIWSRYCMGWFRQAPGKAREGVARFNSDGNTRYVDSVKGRFTISRDNAKNTLYLQMNNLQPEDTARYYCAADPRFDCGYDAVFNPTHFPYWGRGTQVTVSS
Return: 0.18
